Reference for the values: PubChem BioAssay (NCI)

# System: RXF 393 renal
# METHOD SUMMARY: NCI-60 one-dose screen, 48 h
# TEST CONDITIONS: 10 µM unless noted
The panel holds about 83,000 compounds, 20% with a hit somewhere; the sample as a whole holds those more often. The source made the active and inactive calls. The calls were made as follows: active = growth percent below 10; inactive = the rest.
Classes used: 1 for active, -1 for inactive

COMPOUND: CCC[CH2][Sn]([CH2]CCC)([CH2]CCC)[O]c1ccc(Cl)cc1Cl
CATEGORY: 1
//
COMPOUND: CCCCOc1ccc(C(N)Cc2ccccc2)cc1 (stereo not given)
CATEGORY: -1
//
COMPOUND: Fc1ccc(C2=CCNCC2)cc1
CATEGORY: -1
//
COMPOUND: COC(=O)[C@H](C[C@H](Cc1ccccc1)NC(=O)c1csc([C@@H](C[C@H](C(C)C)N(C)C(=O)[C@@H](NC(=O)[C@H]2CCCCN2C)C(C)C)OC(C)=O)n1)NC(=O)OCc1ccccc1
CATEGORY: -1
//
COMPOUND: O=[N+]([O-])c1cc([N+](=O)[O-])c(Nn2c3ccccc3c3ccccc32)c([N+](=O)[O-])c1
CATEGORY: 1
//
COMPOUND: CN[C@@]1(c2ccccc2Cl)CCCC[C@@H]1NCC1CCCO1 (stereo not given in full)
CATEGORY: -1
//
COMPOUND: CN1CC(=O)N(O)C1(C)c1cccnc1 (stereo not given)
CATEGORY: -1
//
COMPOUND: CCn1c2ccccc2c2cc(C(=O)c3cccc4c3CCCN4)ccc21
CATEGORY: -1
//
COMPOUND: CCn1c2ccccc2c2cc(C(=O)c3ccc(C)c4ccccc34)ccc21
CATEGORY: -1
//
COMPOUND: O=C(CC1(O)C(=O)N(Cc2ccccc2)c2ccc(F)cc21)c1ccc(C(=O)NCC2CCC3(CC2)OOC2(CCCCC2)OO3)cc1 (stereo not given)
CATEGORY: 1

----------
# System: DU-145 prostate
# METHOD SUMMARY: NCI-60 one-dose screen, 48 h (100 = growth as untreated, 0 = no growth, -100 = all killed)
# TEST CONDITIONS: 10 µM unless noted
About 83,000 compounds went through this panel and 20% of them were active in at least one assay; those are over-represented in the sample as a whole.
Recorded growth determines the group label, using band 1 = under 30%, band 2 = from 30% up to 90%, band 3 = 90% and over

COMPOUND: CC[C@H](C)[C@H](NC(=O)[C@H]1CCCCN1C)C(=O)N(C)[C@H](CC(=O)c1nc(C(=O)N[C@@H](Cc2ccccc2)C[C@H](C)C(=O)O)cs1)C(C)C
CATEGORY: band 3
//
COMPOUND: COC(=O)[C@H](Cc1ccccc1)NC(=O)c1csc([C@@H](C[C@H](C(C)C)N(C)C(=O)[C@@H](NC(=O)[C@H]2CCCCN2C)C2CC2)OC(C)=O)n1
CATEGORY: band 1
//
COMPOUND: CC1=C(CN)C2=C(C)C3(CC3)[C@@](C)(O)C(=O)C2=C1
CATEGORY: band 2
//
COMPOUND: CO[C@H]1CC[C@@]2(C)C(=CC[C@@H]3[C@@H]2CC[C@]2(C)C(=O)C(=O)C[C@@H]32)C1
CATEGORY: band 3
//
COMPOUND: COc1ccc(/C=C\c2cc(OC)c(OC)c(OC)c2)c(NS(=O)(=O)c2ccc(C)cc2)c1O
CATEGORY: band 1
//
COMPOUND: Clc1ccc2nnnn2n1
CATEGORY: band 1
//
COMPOUND: CCCCCCCCCCCCCCCCCC1OC[C@@H](COC(=O)O[C@@H](C(=O)O[C@H]2C[C@@]3(O)[C@@H](OC(=O)c4ccccc4)[C@@H]4[C@]5(OC(C)=O)CO[C@@H]5C[C@H](O)[C@@]4(C)C(=O)[C@H](OC(C)=O)C(=C2C)C3(C)C)[C@@H](NC(=O)c2ccccc2)c2ccccc2)O1 (some centres not stated)
CATEGORY: band 2
//
COMPOUND: O=C(CC1(O)C(=O)Nc2ccc(Br)cc21)c1ccc(C(=O)NCC2CCC3(CC2)OOC2(CCCCC2)OO3)cc1 (configuration not stated)
CATEGORY: band 2
//
COMPOUND: C=C1C(=O)O[C@H]2[C@H]1CC/C(COC(=O)C(=O)c1cn(Cc3ccccc3)c3ccccc13)=C\CC[C@@]1(C)O[C@@H]21
CATEGORY: band 1
//
COMPOUND: COc1cc2c(cc1OCc1ccccc1)C(CC(C)C)=[N+](C)CC2
CATEGORY: band 3
//
COMPOUND: C=CC[PH+](c1ccccc1)c1ccccc1.C=CC[PH+](c1ccccc1)c1ccccc1.[Cl][Pt][Cl]
CATEGORY: band 2
//
COMPOUND: c1ccc(Nc2nc(-c3ccccc3)c[se]2)cc1
CATEGORY: band 3
//
COMPOUND: COc1ccc(/C=C\c2cc(OC)c(OC)c(OC)c2)cc1NS(=O)(=O)c1ccc(Cl)cc1
CATEGORY: band 3
//
COMPOUND: COc1cc(C=Nc2cc(Cl)cc(Cl)c2)ccc1N(CCCl)CCCl
CATEGORY: band 3
//
COMPOUND: COc1ccc(O)c(CNC(=O)CN2CCCC2=O)c1
CATEGORY: band 3
//
COMPOUND: COC(=O)C1CCC(NC(=O)c2csc([C@@H](C[C@H](C(C)C)N(C)C(=O)[C@@H](NC(=O)[C@H]3CCCCN3C)C(C)C)OC(C)=O)n2)CC1 (some centres not stated)
CATEGORY: band 1

----------
# Tested on: IGROV1 ovarian
# METHOD SUMMARY: NCI-60 one-dose screen, 48 h (100 = growth as untreated, 0 = no growth, -100 = all killed)
# TEST CONDITIONS: 10 µM unless noted
Compounds without any hit were thinned out: in the full panel of roughly 83,000, 20% have a hit.
REPORTED ENDPOINT: growth (%)

COMPOUND: O[C@H](CN1CC1)[C@@H](O)CN1CC1
TARGET UNDER TEST: IGROV1 ovarian
UNIT TAG: %
REPORTED VALUE: 93.9

COMPOUND: CCN(CC)c1ccc2c(c1)OC(N)=C(C#N)C2c1cc(OC)c2c(c1)OCO2 (stereo unspecified)
TARGET UNDER TEST: IGROV1 ovarian
UNIT TAG: %
REPORTED VALUE: 24

COMPOUND: c1ccc(Nc2nc(-c3ccccc3)c[se]2)cc1
TARGET UNDER TEST: IGROV1 ovarian
UNIT TAG: %
REPORTED VALUE: 68.8

COMPOUND: CC(=O)[O][Hg][c]1c(N)c(C)cc(C)c1F
TARGET UNDER TEST: IGROV1 ovarian
UNIT TAG: %
REPORTED VALUE: -32.7

COMPOUND: COc1cc(C=Nc2cc(Cl)cc(Cl)c2)ccc1N(CCCl)CCCl
TARGET UNDER TEST: IGROV1 ovarian
UNIT TAG: %
REPORTED VALUE: 56.7

COMPOUND: Clc1cccc(NCOOC2(OOCNc3cccc(Cl)c3)CCCCC2)c1
TARGET UNDER TEST: IGROV1 ovarian
UNIT TAG: %
REPORTED VALUE: -33.2

COMPOUND: CNC(=O)Oc1cccc(C(F)(F)F)c1
TARGET UNDER TEST: IGROV1 ovarian
UNIT TAG: %
REPORTED VALUE: 120

COMPOUND: CCC(=O)Nc1ccc(Cl)c(Cl)c1
TARGET UNDER TEST: IGROV1 ovarian
UNIT TAG: %
REPORTED VALUE: 104

COMPOUND: CCn1nccc1NC(=O)C(=O)c1cn(Cc2ccc(F)cc2)c2cccc(OC)c12
TARGET UNDER TEST: IGROV1 ovarian
UNIT TAG: %
REPORTED VALUE: 3.65

COMPOUND: O=c1[nH]c2ccc([N+](=O)[O-])cc2c(=O)o1
TARGET UNDER TEST: IGROV1 ovarian
UNIT TAG: %
REPORTED VALUE: 105

COMPOUND: ClCCN(CCCl)c1ccc(/C=N\N=C\c2ccc(N(CCCl)CCCl)cc2)cc1
TARGET UNDER TEST: IGROV1 ovarian
UNIT TAG: %
REPORTED VALUE: 71.5

COMPOUND: COc1cc(NC(C)CCCNC2CN3CCC2CC3)c2ncccc2c1 (stereo unspecified)
TARGET UNDER TEST: IGROV1 ovarian
UNIT TAG: %
REPORTED VALUE: 69.1

COMPOUND: COc1ccc(N(CC(=O)NCCC[Te]c2ccccc2)C(=O)CNC(=O)OC(C)(C)C)cc1
TARGET UNDER TEST: IGROV1 ovarian
UNIT TAG: %
REPORTED VALUE: 4.89

COMPOUND: c1ccc(COc2ccc3[nH]cc(CCN(Cc4ccccc4)Cc4ccccc4)c3c2)cc1
TARGET UNDER TEST: IGROV1 ovarian
UNIT TAG: %
REPORTED VALUE: 90.7

COMPOUND: CC(C)[C@]12O[C@H]1[C@@H]1O[C@]13[C@]1(O[C@H]1C[C@H]1c4c(C(=O)c5ccccc5)oc(OC(=O)c5ccccc5)c4CC[C@@]13C)[C@@H]2O
TARGET UNDER TEST: IGROV1 ovarian
UNIT TAG: %
REPORTED VALUE: -33

COMPOUND: Clc1ccc(N2COOC3(OOC2)C2CC4CC(C2)CC3C4)cc1
TARGET UNDER TEST: IGROV1 ovarian
UNIT TAG: %
REPORTED VALUE: -52.9

COMPOUND: C=CC[Se]C(=O)c1ccccc1OC(C)=O
TARGET UNDER TEST: IGROV1 ovarian
UNIT TAG: %
REPORTED VALUE: 18.1

COMPOUND: COC(=O)[C@@H](C)C[C@H](Cc1ccccc1)NC(=O)c1csc([C@@H](C[C@H](C(C)C)N(C)C(=O)[C@@H](NC(=O)[C@H]2CCCCN2C)C(C)C)OC(C)=O)n1
TARGET UNDER TEST: IGROV1 ovarian
UNIT TAG: %
REPORTED VALUE: 25.7

COMPOUND: COC(=O)[C@@]1(O)C[C@H]2O[C@]1(C)n1c3ccccc3c3c4c(c5c6ccccc6n2c5c31)C(=O)NC4
TARGET UNDER TEST: IGROV1 ovarian
UNIT TAG: %
REPORTED VALUE: -30.4

COMPOUND: COc1ccc(Nc2ccnc3cc(Cl)ccc23)cc1CN(CCCl)CCCl
TARGET UNDER TEST: IGROV1 ovarian
UNIT TAG: %
REPORTED VALUE: -36

COMPOUND: Cc1cc(N(CCCl)CCCl)ccc1/C=N\NC(=O)c1ccncc1
TARGET UNDER TEST: IGROV1 ovarian
UNIT TAG: %
REPORTED VALUE: 87
